Ref: patent US20150064204A1

A collection of binders and their measured EC50
Biological target: T1, human GITR (Glucocorticoid-induced TNFR-related gene, TNFRSF18) (human, UniProt Q9Y5U5 26-241)
T1 construct: also called AITR; huGITR
T1 sequence: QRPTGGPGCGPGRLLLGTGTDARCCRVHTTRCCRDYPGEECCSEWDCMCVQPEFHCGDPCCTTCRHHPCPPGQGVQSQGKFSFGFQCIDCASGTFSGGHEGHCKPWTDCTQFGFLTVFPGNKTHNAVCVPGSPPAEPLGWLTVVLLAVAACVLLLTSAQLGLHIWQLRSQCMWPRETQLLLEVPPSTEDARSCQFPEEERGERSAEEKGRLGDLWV
Assay: flow cytometry (MFI), antibody titration on anti-CD3-activated primary human T cells (CD25+CD4+)
Numbers only here, please. The scale is µg/mL.

# binder, recorded_number
data = [
    ("1D7 (antibody, human IgG1, kappa, V domains shown, Fully human parental antibody; also called Ab1; SS-10942) VH: QVQLVESGGGVVQPGRSLRLSCAASGFTFSSYGMHWVRQAPGKGLEWVTVIWYEGSNKYYADSVKGRFTISRDNSKNTLYLQMNSLRAEDTAVYYCARGGQLGKYYYYGMDVWGQGTTVTVSS VL: DIQMTQSPSSLSASVGDRVTITCRASQGIRNDLGWYQQKPGKAPKRLIYDASSLQSGVPSRFSGSGSGTEFTLTISSLQPEDFATYYCLQHNNYPWTFGQGTKVEIKR", 0.024),
    ("44C1v1 (antibody, human IgG1, lambda, V domains shown, tied to 44C1v1 by Ab20 / SS-12514; also called Ab20; SS-12514) VH: QVQLVESGGGVVQPGRSLRLSCAASGFTLSSYGMHWVRQAPGKGLEWVAVIWYDGSNKYYADSVKGRFTISRDNSKNTLYLQMNSLRAEDTAVYYCARRGTVTTPDFDYWGQGTLVTVSS VL: QSALTQPASVSGSPGQSITISCTGTSSDVGTYNLVSWYQQHPGKAPKLMIYEVSKRPSGVSNRFSGSKSGNTASLTISGLQAEDEADYYCASYAGFSTWVFGGGTKLTVLG", 0.802),
    ("9H6 (antibody, human IgG1, kappa, V domains shown, Fully human parental antibody; also called Ab19; SS-10945) VH: QVQLVESGGGVVQPGRSLRLSCVASGFTFSSYGMHWIRQAPGKGLEWVAVIWYEGSNKYYADSVKGRFTISRDNSKNTLYLQMNSLRAEDTAVYYCARGGRLGKDYYSGMDVWGQGTTVTVSS VL: DIQMTQSPSSLSASVGDRVTITCRASQGIRNDLGWYQQKPGKAPNRLIYATSSLQSGVPSRFSGSGSGTEFTLTISSLQPEDFATYYCLQHNTYPWTFGQGTKVEIKR", 0.026),
]

Form field: reported EC50 of 48H7 (antibody, human IgG1, kappa, V domains shown, Fully human parental antibody; also called Ab13; SS-12423) VH: QVQLVESGGGVVQPGRSLRLSCAASGFTFSSYGMYWVRQAPGKGLEWVAVIWYEGSNKYYADSVKGRFTISRDNSKNTLYLQMNSLRAEDTAVYFCARGGELGRDYYSGMDVWGQGTTVTVSS VL: DIQMTQSPSSLSASVGDRVTITCRASQVIRNDLGWYQQKPGKAPKRLIYAASSLQSGVPSRFSGSGSGTEFTLTISSLQPEDFATYYCLQHNSYPITFGGGTKVEIKR
0.045

Repeat with 45A8v1 (antibody, human IgG1, lambda, V domains shown, tied to 45A8v1 by Ab21 / SS-12515; also called Ab21; SS-12515) VH: QVQLVESGGGVVQPGRSLRLSCAASGFTFSSYGMHWVRQAPGKGLEWVAVIWHDGSNKYYADSVKGRFTISKDNSKNTLYLQMNSLRAEDTAVYYCAREYGGNFDYWGQGTLVTVSS VL: QSALTQPASVSGSPGQSITISCTGTSSDVGTYNLVSWYQQHPGKAPKLMIYEVSKRPSGISNRFSGSKSGNTASLTISGLQAEDEADYYCASYAGYSTWVFGGGTKLTVLR
0.102
